Please provide measured Enzyme Activity Endpoint Assay (purified): IgG for the entries that follow.
- assaySystem: pooled human IgG
Provide the reading as a plain figure in ng/µL.

// query Enzyme Activity Endpoint Assay (purified): IgG value for entry PRT-321 (protein) MTITSVWTKGVTPPTPEDFRENNEDVLHAPYVANQGWYDITKTFDGKDNLLCGAATAGNMLHWWFDQNKEEIERYLKKHPEKQKIIFGNQELFDVKAAIDTKDSQTNSKLFDYFRDKAFPNLSARQLGVMPDLVLDMFINGYYLNLPKTQSTDVNRPYQDKDKRGGIFDAVFTRGDQTTLLTARHDLKNKGLNEISDLIKQELTEGKALALSHTYANVRINHVINLWGADFDAEGNLIAIYVTDSDANASIGMKKYAVGVNANGKVAISAKKIEGDNIGAQVLGLFTLSTGQDQWQKLS
139

Could you tell me which Enzyme Activity Endpoint Assay (purified): IgG is on file for PRT-329 (protein) MTITSVWTKGVTPPTPEDFRENNEDVLHAPYVANQGWYDITKTFDGKDNLLCGAATAGNMLHWWFDQNKEEIERYLKKHPEKQKIIFNNQELFDVKAAIDTKDSQTNSKLFNYFRDKAFPGLSARQLGVFPDLVLDMFINGYYLNLGKTQSTDVNRPYQDKDKRGGIFDAVFTRGVQTTLLTARHDLKNKGLNEISDLIKQELTEGKALALSHTYANVRINHVINLWGADFDAEGNLIAIYVTDSDANASIGMKKYFVGRNANGKVAISAKKIEGDNIGAQVLGLFTLSLGQDIWQKLS ?
0
